conditionContext: 323 K; 101.33 kPa; Liquid; Concentric cylinders viscometry
± gives the expanded uncertainty stated by the source.
reportedProperty: viscosity

{"recordSmiles": "CCCCCCCCCCCCCCn1cc[n+](C)c1.O=S(=O)([N-]S(=O)(=O)C(F)(F)F)C(F)(F)F", "result": "63.09 ± 3.2 mPa·s"}
{"recordSmiles": "CCCCCCCCCCn1cc[n+](C)c1.O=S(=O)([N-]S(=O)(=O)C(F)(F)F)C(F)(F)F", "result": "39.91 ± 2 mPa·s"}
{"recordSmiles": "CCCC[n+]1ccn(C)c1.O=S(=O)([N-]S(=O)(=O)C(F)(F)F)C(F)(F)F", "result": "20.45 ± 1 mPa·s"}
{"recordSmiles": "CCCCCCCCCCCCn1cc[n+](C)c1.O=S(=O)([N-]S(=O)(=O)C(F)(F)F)C(F)(F)F", "result": "49.11 ± 2.5 mPa·s"}
{"recordSmiles": "CCCCCCCCn1cc[n+](C)c1.O=S(=O)([N-]S(=O)(=O)C(F)(F)F)C(F)(F)F", "result": "32.56 ± 1.6 mPa·s"}
{"recordSmiles": "CCCn1cc[n+](C)c1.O=S(=O)([N-]S(=O)(=O)C(F)(F)F)C(F)(F)F", "result": "19.11 ± 0.98 mPa·s"}
{"recordSmiles": "CCn1cc[n+](C)c1.O=S(=O)([N-]S(=O)(=O)C(F)(F)F)C(F)(F)F", "result": "15.5 ± 0.79 mPa·s"}
{"recordSmiles": "CCCCCC[n+]1ccn(C)c1.O=S(=O)([N-]S(=O)(=O)C(F)(F)F)C(F)(F)F", "result": "26.25 ± 1.3 mPa·s"}
{"recordSmiles": "CCCCCn1cc[n+](C)c1.O=S(=O)([N-]S(=O)(=O)C(F)(F)F)C(F)(F)F", "result": "22.4 ± 1.1 mPa·s"}
{"recordSmiles": "CCCCCCCn1cc[n+](C)c1.O=S(=O)([N-]S(=O)(=O)C(F)(F)F)C(F)(F)F", "result": "29.3 ± 1.5 mPa·s"}
